meta.source: paper PMC6277434

# systemTested: HMGCR (TM1-8)-GFP (Cricetulus griseus)
# Sequence (P00347 1-346): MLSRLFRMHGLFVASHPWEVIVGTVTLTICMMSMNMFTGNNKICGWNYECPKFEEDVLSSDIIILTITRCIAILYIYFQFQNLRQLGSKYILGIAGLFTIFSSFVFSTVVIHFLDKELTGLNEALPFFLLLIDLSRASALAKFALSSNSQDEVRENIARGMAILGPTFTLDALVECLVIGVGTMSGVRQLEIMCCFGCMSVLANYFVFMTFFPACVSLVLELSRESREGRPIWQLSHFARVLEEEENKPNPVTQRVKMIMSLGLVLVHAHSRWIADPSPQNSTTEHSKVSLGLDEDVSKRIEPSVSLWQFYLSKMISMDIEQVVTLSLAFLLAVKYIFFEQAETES
# testMethodNotes: HMGCR (TM1-8)-GFP fluorescent assay (high-content imaging) in CHG cells
# conditionContext: read-out: Mean (HMGCR (TM1-8)-GFP signal relative to 0 μM = 100)
Would you mind telling me the reported remaining activity at 10 µM of each entry?
One number for each entry, in %.

>  <molecule>
CCC(O)(CC)CCCC[C@@H](C)C1CCC2C3C(CC[C@@]21C)[C@@]1(C)CC[C@H](O)C(C)(C)C1=C[C@@H]3O (stereo partly drawn)

>  <unitsLabel>
%

>  <remaining activity at 10 µM>
15.2

$$$$
>  <molecule>
C[C@H](CCCCC(C)(C)O)C1CCC2C3C(CC[C@@]21C)[C@@]1(C)CC[C@H](O)C(C)(C)C1=C[C@@H]3O (stereo partly drawn)

>  <unitsLabel>
%

>  <remaining activity at 10 µM>
12.4

$$$$

Could you now look at the following molecule, please?
*Q* So what's the measured remaining activity at 10 µM for this one? C[C@H](CCCCC(=O)O)C1CCC2C3C(CC[C@@]21C)[C@@]1(C)CC[C@H](O)C(C)(C)C1=C[C@@H]3O (stereo partly drawn)
*A* 58
